Measured values drawn from patent US11319324B2 for this set.

Target: human P2X2/3 receptors (Homo sapiens, UniProt P56373+Q9UBL9)
Construct: expressed in transfected cells; host or cells: human astrocytoma 1321N1 (1312N1 [sic])
Sequence (P56373 1-397): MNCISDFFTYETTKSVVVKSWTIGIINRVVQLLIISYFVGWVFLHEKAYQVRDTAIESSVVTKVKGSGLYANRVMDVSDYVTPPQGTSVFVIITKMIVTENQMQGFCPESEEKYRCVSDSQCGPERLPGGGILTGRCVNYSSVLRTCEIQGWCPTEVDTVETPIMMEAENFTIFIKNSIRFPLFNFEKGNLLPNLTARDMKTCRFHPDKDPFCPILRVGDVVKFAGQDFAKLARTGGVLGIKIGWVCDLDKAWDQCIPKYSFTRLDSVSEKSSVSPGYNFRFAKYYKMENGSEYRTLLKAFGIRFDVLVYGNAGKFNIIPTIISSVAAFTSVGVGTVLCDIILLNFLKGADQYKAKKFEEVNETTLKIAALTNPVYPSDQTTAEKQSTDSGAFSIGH
Sequence (Q9UBL9 1-471): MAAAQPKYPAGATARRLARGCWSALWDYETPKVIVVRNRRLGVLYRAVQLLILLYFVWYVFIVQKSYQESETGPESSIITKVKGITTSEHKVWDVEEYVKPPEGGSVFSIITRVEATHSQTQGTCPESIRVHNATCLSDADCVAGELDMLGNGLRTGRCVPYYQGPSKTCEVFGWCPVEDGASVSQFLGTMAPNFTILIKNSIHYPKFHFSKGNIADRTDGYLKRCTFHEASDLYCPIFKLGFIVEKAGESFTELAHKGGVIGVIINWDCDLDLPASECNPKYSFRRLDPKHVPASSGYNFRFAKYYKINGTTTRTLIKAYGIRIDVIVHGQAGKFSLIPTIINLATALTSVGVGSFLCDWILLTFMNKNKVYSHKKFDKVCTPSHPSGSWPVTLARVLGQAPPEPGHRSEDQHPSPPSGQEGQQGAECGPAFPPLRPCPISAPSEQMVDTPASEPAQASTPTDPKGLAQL
Assay: Intracellular calcium measurement, antagonist activity at human P2X2/3 receptors (hP2X23 1321N1), Fluo8
Format: cell-based
Conditions: column 4); 1321N1 cells, human P2X2/3, Fluo8, agonist ATP at EC50; read-out: 4) hP2X2/3 IC50 [nM] (1321N1)
Experimental: 3) And 4) Intracellular Calcium Measurement to Compare Antagonist Activity at Human P2X3 Receptors (hP2X3 1321N1) and at Human P2X2/3 Receptors (hP2X23 1321N1) The comparison of antagonistic activity at the P2X3 versus the P2X2/3 receptor of the compounds of the invention were performed by use of recombinant cell lines. […] The cytoplasmatic calcium transient is detected via the calcium sensitive dye Fluo8. The strength of Fluo8 fluorescence signal corresponds to the level of receptor activation. […]
Give measured IC50 for each item. Keep answers brief.
Give bare numbers, in nM.

CC(C)N1Cc2c(n(CC(=O)Nc3ccc(F)cn3)c3cc(Br)nn3c2=O)C1=O [Example 75] | 4400
CC(C)N1Cc2c(n(CC(=O)Nc3ccc(Cl)cn3)c3cc(C(C)(C)C)nn3c2=O)C1=O [Example 3] | 2850
COC[C@H](C)N1Cc2c(n(CC(=O)Nc3ccc(F)cn3)c3cc(C(=O)NCC4CC4)nn3c2=O)C1=O [Example 190] | 5900

Report IC50 for each item below.
1. COCCN1Cc2c(n(CC(=O)Nc3ccc(F)cn3)c3cc(C(C)(C)C)nn3c2=O)C1=O [Example 49]
2. CC(C)Nc1cc2n(CC(=O)Nc3ccc(F)cn3)c3c(c(=O)n2n1)CN(C(C)C)C3=O [Example 171]
3. CC(C)N1Cc2c(n(CC(=O)Nc3ccc(F)cn3)c3cc(C(=O)Nc4ccccn4)nn3c2=O)C1=O [Example 201]

1: 3900; 2: 4900; 3: 3870

---

Give measured IC50 for each item. Keep answers brief.
biological target: UniProt P56373; assay: Intracellular calcium measurement to assess antagonist activity at human P2X3 receptors (hP2X3 CHO), photina luminescence; format: cell-based; parameters: expressed in transfected cells; host or cells: Chinese hamster ovary (CHO) cells; details: column 2), CHO cells, agonist α,β-methylene-ATP at EC50
Numbers only, in nM.

These solved cases illustrate the format of a correct answer.
Cc1ccc(NC(=O)Cn2c3c(c(=O)n4nc(C(C)C)cc24)CN(C(C)C)C3=O)nc1 | 220
CCc1cc2n(CC(=O)Nc3ccc(F)cn3)c3c(c(=O)n2n1)CN(C1CCN(C)C1)C3=O (stereo not shown) | 493
CCc1cc2n(CC(=O)Nc3ccc(F)cn3)c3c(c(=O)n2n1)CN(C1CCN(C(C)=O)C1)C3=O (stereo not shown) | 533

Now take the following molecule into account.
I am curious: what IC50 value has been reported for `CC(C)N1Cc2c(n(CC(=O)Nc3ccc(F)cn3)c3cc(C(=O)Nc4cccc(F)c4)nn3c2=O)C1=O` ? 47

---

biological target: human P2X2/3 receptors (Homo sapiens, UniProt P56373+Q9UBL9); construct: expressed in transfected cells; host or cells: human astrocytoma 1321N1 (1312N1 [sic]); test: Intracellular calcium measurement, antagonist activity at human P2X2/3 receptors (hP2X23 1321N1), Fluo8; assay type: cell-based; conditions: ratio of column 4) hP2X2/3 to column 3) hP2X3, 1321N1
QUANTITY NAME: hP2X23/hP2X3* Selectivity (1321N1)

These solved cases illustrate the format of a correct answer.
CC(C)c1cc2n(CC(=O)Nc3ccc(Cl)cn3)c3c(c(=O)n2n1)CN(C(C)C)C3=O [Example 8] | 76
CCc1cc2n(CC(=O)Nc3ccc(F)cn3)c3c(c(=O)n2n1)CN(C[C@H]1CN(C(C)=O)CCO1)C3=O [Example 267] | 25
CCc1cc2n(CC(=O)Nc3ccc(F)cn3)c3c(c(=O)n2n1)CN(Cc1ccccn1)C3=O [Example 108] | 200
CC(C)N1Cc2c(n(CC(=O)Nc3ccc(F)cn3)c3cc(NC(=O)c4cnn[nH]4)nn3c2=O)C1=O [Example 286] | 248
COC[C@H](C)N1Cc2c(n(CC(=O)Nc3ccc(F)cn3)c3cc(C(C)(C)C)nn3c2=O)C1=O [Example 35] | 353

Report hP2X23/hP2X3* Selectivity (1321N1) for each item below.
1. COC[C@H](C)N1Cc2c(n(CC(=O)Nc3ccc(F)cn3)c3cc(NC4CCCC4)nn3c2=O)C1=O [Example 178]
2. CCc1cc2n(CC(=O)Nc3ccc(C)cn3)c3c(c(=O)n2n1)CN(CC1CCCO1)C3=O (stereo not drawn) [Example 63]
3. CC(C)N1Cc2c(n(CC(=O)Nc3ccc(F)cn3)c3cc(C4CCNCC4)nn3c2=O)C1=O.Cl [Example 234]
4. O=C(Cn1c2c(c(=O)n3nc(C4CCOCC4)cc13)CN(C1CCCC1)C2=O)Nc1ccc(F)cn1 [Example 92]

1: 917; 2: 20; 3: >86; 4: 192

Report hP2X23/hP2X3* Selectivity (1321N1) for each item below.
1. CC(C)NC(=O)Nc1cc2n(CC(=O)Nc3ccc(F)cn3)c3c(c(=O)n2n1)CN(C(C)C)C3=O [Example 290]
2. CC[C@@H](C)N1Cc2c(n(CC(=O)Nc3ccc(F)cn3)c3cc(C(F)(F)F)nn3c2=O)C1=O [Example 14]
3. O=C(Cn1c2c(c(=O)n3nc(Cl)cc13)CN(CCN1CCOCC1)C2=O)Nc1ccc(F)cn1 [Example 105]
4. CC(C)N1Cc2c(n(CC(=O)Nc3ccc(F)cn3)c3cc(C(=O)N(C)CC4CC4)nn3c2=O)C1=O [Example 199]
5. CC(C)N1Cc2c(n(CC(=O)Nc3ccc(F)cn3)c3cc(NCCO)nn3c2=O)C1=O [Example 276]
6. CNC(=O)c1cc2n(CC(=O)Nc3ccc(F)cn3)c3c(c(=O)n2n1)CN([C@@H](C)COC)C3=O [Example 193]

1. 44
2. 194
3. >348
4. 1321
5. >223
6. >180

---

Biological target: human P2X2/3 receptors (Homo sapiens, UniProt P56373+Q9UBL9)
Construct: expressed in transfected cells; host or cells: human astrocytoma 1321N1 (1312N1 [sic])
Test: Intracellular calcium measurement, antagonist activity at human P2X2/3 receptors (hP2X23 1321N1), Fluo8
Format: cell-based
Details: column 4); 1321N1 cells, human P2X2/3, Fluo8, agonist ATP at EC50; read-out: 4) hP2X2/3 IC50 [nM] (1321N1)
Protocol: 3) And 4) Intracellular Calcium Measurement to Compare Antagonist Activity at Human P2X3 Receptors (hP2X3 1321N1) and at Human P2X2/3 Receptors (hP2X23 1321N1) The comparison of antagonistic activity at the P2X3 versus the P2X2/3 receptor of the compounds of the invention were performed by use of recombinant cell lines. […] The cytoplasmatic calcium transient is detected via the calcium sensitive dye Fluo8. The strength of Fluo8 fluorescence signal corresponds to the level of receptor activation. […]
QUANTITY NAME: IC50 (nM)
Give bare numbers, in nM.

These solved cases illustrate the format of a correct answer.
CCc1cc2n(CC(=O)Nc3ccc(F)cn3)c3c(c(=O)n2n1)CN(C1CCN(C(=O)OC(C)(C)C)C1)C3=O (stereo not shown) | 6100
CC(C)N1Cc2c(n(CC(=O)Nc3ccc(F)cn3)c3cc(C(=O)N4CCC4)nn3c2=O)C1=O | 8920
CC(C)(C)c1cc2n(CC(=O)Nc3ccc(F)cn3)c3c(c(=O)n2n1)CN(CC1CC1)C3=O | 5650

Report IC50 for each item below.
1. COC[C@H](C)N1Cc2c(n(CC(=O)Nc3ccc(F)cn3)c3cc(C(=O)N(C)c4ccccn4)nn3c2=O)C1=O
2. COC[C@H](C)N1Cc2c(n(CC(=O)Nc3ccc(F)cn3)c3cc(C(=O)Nc4cccnn4)nn3c2=O)C1=O

1. 6450
2. 5600
